Values from patent US20040121946A9

system: HLA-B*0702 (Homo sapiens, UniProt P01889)
Format: binding
condition-context: Table XXIV, B7 supermotif peptides
Entries and their pIC50
The read-out pIC50 is expressed as -log10 of concentration in moles per litre.

| molecule | pIC50 |
| --- | --- |
| CC[C@H](C)[C@H](NC(=O)[C@H](CO)NC(=O)[C@H](CC(C)C)NC(=O)[C@H](CC(=O)O)NC(=O)[C@@H]1CCCN1C(=O)[C@H](CCCCN)NC(=O)[C@@H](NC(=O)CNC(=O)[C@H](CO)NC(=O)[C@@H]1CCCN1C(=O)[C@@H](N)CS)C(C)C)C(=O)O | 6.54 |
| CC(C)[C@H](NC(=O)[C@H](Cc1ccc(O)cc1)NC(=O)CNC(=O)[C@H](CC(=O)O)NC(=O)[C@@H](NC(=O)[C@H](CCC(=O)O)NC(=O)[C@H](CO)NC(=O)[C@@H]1CCCN1C(=O)[C@@H](N)Cc1ccccc1)[C@@H](C)O)C(=O)O | 6.69 |
| CSCC[C@H](NC(=O)[C@H](C)NC(=O)CNC(=O)[C@H](CO)NC(=O)[C@@H]1CCCN1C(=O)[C@@H](NC(=O)[C@H](CC(C)C)NC(=O)[C@@H]1CCCN1C(=O)[C@@H](N)Cc1ccccc1)[C@@H](C)O)C(=O)O | 8.70 |
| CC(C)C[C@H](NC(=O)[C@@H]1CCCN1C(=O)[C@H](CO)NC(=O)[C@H](C)NC(=O)[C@@H]1CCCN1C(=O)[C@@H](N)Cc1ccccc1)C(=O)N[C@@H](CC(=O)O)C(=O)N[C@@H](CO)C(=O)N[C@H](C(=O)N[C@@H](Cc1ccccc1)C(=O)O)[C@@H](C)O | 8.43 |
| CC[C@H](C)[C@H](NC(=O)[C@H](CO)NC(=O)[C@H](CCCNC(=N)N)NC(=O)[C@H](Cc1ccc(O)cc1)NC(=O)[C@H](Cc1ccccc1)NC(=O)[C@@H](NC(=O)[C@H](CO)NC(=O)[C@H](CC(=O)O)NC(=O)[C@H](CC(C)C)NC(=O)[C@@H]1CCCN1C(=O)[C@@H](N)Cc1ccccc1)[C@@H](C)O)C(=O)O | 6.64 |
| CC[C@H](C)[C@H](NC(=O)[C@H](C)NC(=O)CNC(=O)[C@H](CO)NC(=O)[C@@H]1CCCN1C(=O)[C@@H](NC(=O)[C@H](CC(C)C)NC(=O)[C@@H]1CCCN1C(=O)[C@@H](N)Cc1ccccc1)[C@@H](C)O)C(=O)O | 9.05 |

Now for the molecule whose pIC50 we want.
Query string: Which pIC50 is listed for CC[C@H](C)[C@H](NC(=O)[C@H](CO)NC(=O)[C@H](CC(C)C)NC(=O)[C@H](CO)NC(=O)[C@H](C)NC(=O)[C@H](CC(N)=O)NC(=O)[C@@H](NC(=O)[C@@H]1CCCN1C(=O)[C@@H](N)Cc1ccccc1)[C@@H](C)O)C(=O)O ?
Result string: 8.34

----------
Entries and their Broad Binding (5/8)
Test system: HLA-DR molecules (DR1, DR4w4, DR7, DRB5*0101, DRB1*1501, DRB1*1101, DRB1*0802, DRB1*1302)
assay-comment: DR supertype cross-reactive binding
Design: species or system human
condition-context: number of the 8 DR alleles bound

Example entries begin here.
| molecule | Broad Binding (5/8) |
| --- | --- |
| CSCC[C@H](NC(=O)[C@@H](NC(=O)[C@H](Cc1ccc(O)cc1)NC(=O)[C@H](C)NC(=O)[C@H](CCC(=O)O)NC(=O)[C@@H](N)CC(=O)O)C(C)C)C(=O)N[C@@H](C)C(=O)NCC(=O)N[C@H](C(=O)NCC(=O)N[C@@H](CO)C(=O)N1CCC[C@H]1C(=O)N[C@@H](Cc1ccc(O)cc1)C(=O)N[C@H](C(=O)N[C@@H](CO)C(=O)O)C(C)C)C(C)C | 5 |
| CC(C)C[C@H](NC(=O)[C@H](CO)NC(=O)[C@H](C)NC(=O)[C@H](CC(N)=O)NC(=O)[C@@H](NC(=O)[C@@H]1CCCN1C(=O)[C@H](CC(C)C)NC(=O)[C@H](Cc1ccc(O)cc1)NC(=O)[C@@H](NC(=O)[C@H](CC(C)C)NC(=O)[C@H](CCC(=O)O)NC(=O)[C@H](CC(C)C)NC(=O)[C@@H](N)CC(N)=O)[C@@H](C)O)[C@@H](C)O)C(=O)N[C@@H](CO)C(=O)N[C@@H](Cc1ccccc1)C(=O)O | 4 |

Query string: Which Broad Binding (5/8) is listed for CC(C)C[C@H](NC(=O)[C@H](CCC(=O)O)NC(=O)[C@@H](NC(=O)[C@@H](N)CCC(=O)O)[C@@H](C)O)C(=O)N[C@@H](CCCNC(=N)N)C(=O)N[C@@H](CCCCN)C(=O)N[C@H](C(=O)N[C@@H](CCCCN)C(=O)N[C@H](C(=O)N[C@@H](CC(C)C)C(=O)NCC(=O)N[C@@H](CO)C(=O)NCC(=O)N[C@@H](C)C(=O)N[C@@H](Cc1ccccc1)C(=O)O)C(C)C)C(C)C ?
Result string: 2

Query string: Which Broad Binding (5/8) is listed for CC[C@H](C)[C@H](NC(=O)[C@H](CCCCN)NC(=O)[C@H](CCCCN)NC(=O)[C@@H](N)CS)C(=O)N[C@@H](Cc1ccccc1)C(=O)NCC(=O)N[C@@H](CO)C(=O)N[C@@H](CC(C)C)C(=O)N[C@@H](C)C(=O)N[C@@H](Cc1ccccc1)C(=O)N[C@@H](CC(C)C)C(=O)N1CCC[C@H]1C(=O)N[C@@H](CCC(=O)O)C(=O)N[C@@H](CO)C(=O)N[C@@H](Cc1ccccc1)C(=O)O ?
Result string: 2

Query string: Which Broad Binding (5/8) is listed for CC[C@H](C)[C@H](NC(=O)[C@H](CCSC)NC(=O)[C@H](Cc1c[nH]c2ccccc12)NC(=O)[C@H](CS)NC(=O)[C@H](CCCCN)NC(=O)[C@@H](NC(=O)[C@H](CCSC)NC(=O)[C@@H](NC(=O)[C@H](CCSC)NC(=O)[C@H](Cc1ccc(O)cc1)NC(=O)[C@@H](NC(=O)[C@@H](N)CC(=O)O)C(C)C)[C@@H](C)CC)C(C)C)C(=O)N[C@@H](CC(=O)O)C(=O)N[C@@H](CO)C(=O)N[C@@H](CCC(=O)O)C(=O)O ?
Result string: 4
